Reference source for all entries: patent US20260070918A1

- Assay name: Rat pharmacokinetic (PK) assay
- Assay type: in vivo, Sprague-Dawley rat
- Conditions used: male, Sprague-Dawley, plasma; Rat iv, dose 5 mg/kg (table)
Parameter measured: AUC(0-t)

[
  {
    "Molecular string": "O=C(O)c1ccc(C2(NC(=O)c3c(Cl)sc4ccn(Cc5ccc(C(F)(F)F)cc5)c34)CC2)cc1",
    "Parameter measured": "AUC(0-t)",
    "Result": "27700 ng·h/mL"
  }
]

* * *

- Assay name: Liver microsomal stability, mouse
- Format: in vitro ADME
- Conditions used: pooled mouse liver microsomes, read-out: In vitro T1/2
Parameter measured: half-life

[
  {
    "Molecule": "O=C(O)c1ccc(C2(NC(=O)c3c(F)sc4ccn(Cc5ccc(C(F)(F)F)cc5)c34)CC2)cc1 [Example 3]",
    "Parameter measured": "half-life",
    "Result": "3.37 h"
  },
  {
    "Molecule": "COc1sc2ccn(Cc3ccc(C(F)(F)F)cc3)c2c1C(=O)NC1(c2ccc(C(=O)O)cc2)CC1 [Example 4]",
    "Parameter measured": "half-life",
    "Result": "2.18 h"
  },
  {
    "Molecule": "O=C(O)c1ccc(C2(NC(=O)c3c(Cl)sc4ccn(Cc5ccc(C(F)(F)F)cc5)c34)CC2)cc1 [Example 1]",
    "Parameter measured": "half-life",
    "Result": "1.54 h"
  }
]
